// data source = paper PMC6033896

# MEASUREMENT TARGET: Mcl-1 protein (Homo sapiens, UniProt Q07820)
# Construct: human Mcl-1 (residues 171–323); His tag (pHis-TEV vector) (N, cleaved yes); made in house; host or cells: E. coli BL21 (DE3)
# Sequence (Q07820 171-323): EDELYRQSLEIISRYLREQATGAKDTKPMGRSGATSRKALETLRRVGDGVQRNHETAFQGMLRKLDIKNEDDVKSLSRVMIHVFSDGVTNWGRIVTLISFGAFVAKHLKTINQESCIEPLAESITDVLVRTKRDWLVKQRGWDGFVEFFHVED
# ASSAY EXPLANATION: SPR-based solution competitive binding assay, immobilized biotin-labelled Bim BH3 peptide
# SETUP CONDITIONS: Mcl-1 20 nM; competition with immobilized Bim BH3 peptide
ASSAY METRIC: IC50 (µM)

> print(dat)
                                   compound                        measurement.target  assay.metric  modifier  readout.number
1  CN(C)c1ccc(NC(=O)CSc2nnc(-c3ccco3)c(-c3ccco3)n2)cc1  Mcl-1 protein (Homo sapiens, UniProt Q07820)          IC50         >             100
2  O=C(CSc1nnc(-c2ccccn2)c(-c2ccccn2)n1)Nc1ccccc1  Mcl-1 protein (Homo sapiens, UniProt Q07820)          IC50         >             100
3  Nc1ccc(NC(=O)CSc2nnc(-c3ccco3)c(-c3ccco3)n2)cc1  Mcl-1 protein (Homo sapiens, UniProt Q07820)          IC50         >             100
4  O=C(CSc1nnc(-c2ccco2)c(-c2ccco2)n1)Nc1cccc(-c2ccccc2)c1  Mcl-1 protein (Homo sapiens, UniProt Q07820)          IC50         =             7.3
5  O=C(CSc1nnc(-c2ccco2)c(-c2ccco2)n1)Nc1ccc(-c2ccccc2)cc1  Mcl-1 protein (Homo sapiens, UniProt Q07820)          IC50         =             5.1
6  CCOc1ccc(C(=O)Nc2cc(NC(=O)c3ccc(OCC)c(Cl)c3)cc(C(=O)O)c2)cc1Cl  Mcl-1 protein (Homo sapiens, UniProt Q07820)          IC50         =            21.3
7  Cc1ccc2nc(N3C(=O)C(O)=C(C(=O)c4cc5ccccc5o4)C3c3cccs3)sc2c1 (centres unmarked)  Mcl-1 protein (Homo sapiens, UniProt Q07820)          IC50         =             4.5
8  O=C(CSc1nnc(-c2ccccc2)c(-c2ccccc2)n1)Nc1ccccc1  Mcl-1 protein (Homo sapiens, UniProt Q07820)          IC50         >             100
